tested on: HEK293; assay: Cytotoxicity against human HEK293 cells after 72 hrs by MTT assay; assay type: cell-based; conditions: HEK293, 72 h
Endpoint Label: IC50

-- ask Which IC50 is reported with HEK293 for this entry: CCCCCCCCCCOC(=O)CCC(=O)OCCN1CCN(c2cc(Nc3ncc(C(=O)Nc4c(C)cccc4Cl)s3)nc(C)n2)CC1 ?
-- reply 46 µM

-- ask Which IC50 is reported with HEK293 for this entry: CCCCCCCCCCCCOC(=O)CCCC(=O)OCCN1CCN(c2cc(Nc3ncc(C(=O)Nc4c(C)cccc4Cl)s3)nc(C)n2)CC1 ?
-- reply > 500 µM

-- ask Which IC50 is reported with HEK293 for this entry: Cc1nc(Nc2ncc(C(=O)Nc3c(C)cccc3Cl)s2)cc(N2CCN(CCOC(=O)CCC(=O)OCCC(F)(F)C(F)(F)C(F)(F)C(F)(F)C(F)(F)C(F)(F)C(F)(F)C(F)(F)F)CC2)n1 ?
-- reply > 500 µM

-- ask Which IC50 is reported with HEK293 for this entry: Cc1nc(Nc2ncc(C(=O)Nc3c(C)cccc3Cl)s2)cc(N2CCN(CCOC(=O)CCC(=O)OCCC(F)(F)C(F)(F)C(F)(F)C(F)(F)C(F)(F)C(F)(F)F)CC2)n1 ?
-- reply 58 µM

-- ask Which IC50 is reported with HEK293 for this entry: CCCCCCCCCCCCOC(=O)CCC(=O)OCCN1CCN(c2cc(Nc3ncc(C(=O)Nc4c(C)cccc4Cl)s3)nc(C)n2)CC1 ?
-- reply > 500 µM

-- ask Which IC50 is reported with HEK293 for this entry: Cc1nc(Nc2ncc(C(=O)Nc3c(C)cccc3Cl)s2)cc(N2CCN(CCOC(=O)CCCC(=O)OCCC(F)(F)C(F)(F)C(F)(F)C(F)(F)C(F)(F)C(F)(F)F)CC2)n1 ?
-- reply > 500 µM

-- ask Which IC50 is reported with HEK293 for this entry: Cc1nc(Nc2ncc(C(=O)Nc3c(C)cccc3Cl)s2)cc(N2CCN(CCOC(=O)CCC(=O)OCCC(F)(F)C(F)(F)C(F)(F)C(F)(F)C(F)(F)C(F)(F)C(F)(F)C(F)(F)C(F)(F)C(F)(F)F)CC2)n1 ?
-- reply > 500 µM

-- ask Which IC50 is reported with HEK293 for this entry: CCCCCCCCCCOC(=O)CCCC(=O)OCCN1CCN(c2cc(Nc3ncc(C(=O)Nc4c(C)cccc4Cl)s3)nc(C)n2)CC1 ?
-- reply 29 µM

-- ask Which IC50 is reported with HEK293 for this entry: CCCCCCCCCCCCCCCCCCOC(=O)CCCC(=O)OCCN1CCN(c2cc(Nc3ncc(C(=O)Nc4c(C)cccc4Cl)s3)nc(C)n2)CC1 ?
-- reply > 500 µM

-- ask Which IC50 is reported with HEK293 for this entry: CCCCCCCCCCCCCCCCCCOC(=O)CCC(=O)OCCN1CCN(c2cc(Nc3ncc(C(=O)Nc4c(C)cccc4Cl)s3)nc(C)n2)CC1 ?
-- reply > 500 µM

-- ask Which IC50 is reported with HEK293 for this entry: Cc1nc(Nc2ncc(C(=O)Nc3c(C)cccc3Cl)s2)cc(N2CCN(CCOC(=O)CCCC(=O)OCCC(F)(F)C(F)(F)C(F)(F)C(F)(F)C(F)(F)C(F)(F)C(F)(F)C(F)(F)C(F)(F)C(F)(F)F)CC2)n1 ?
-- reply > 500 µM

-- ask Which IC50 is reported with HEK293 for this entry: Cc1nc(Nc2ncc(C(=O)Nc3c(C)cccc3Cl)s2)cc(N2CCN(CCOC(=O)CCCC(=O)OCCC(F)(F)C(F)(F)C(F)(F)C(F)(F)C(F)(F)C(F)(F)C(F)(F)C(F)(F)F)CC2)n1 ?
-- reply > 500 µM

-- ask Which IC50 is reported with HEK293 for this entry: CCCCCCCCOC(=O)CCC(=O)OCCN1CCN(c2cc(Nc3ncc(C(=O)Nc4c(C)cccc4Cl)s3)nc(C)n2)CC1 ?
-- reply 52 µM

-- ask Which IC50 is reported with HEK293 for this entry: CCCCCCCCOC(=O)CCCC(=O)OCCN1CCN(c2cc(Nc3ncc(C(=O)Nc4c(C)cccc4Cl)s3)nc(C)n2)CC1 ?
-- reply 18 µM

-- ask Which IC50 is reported with HEK293 for this entry: Cc1nc(Nc2ncc(C(=O)Nc3c(C)cccc3Cl)s2)cc(N2CCN(CCO)CC2)n1.O [DASATINIB] ?
-- reply 14.3 µM
